Sourced from patent US20240239794A1

Biological target: Recombinant human PKC-delta (His-tagged 345-676) (Homo sapiens (Human))
Sequence (Q05655 345-676): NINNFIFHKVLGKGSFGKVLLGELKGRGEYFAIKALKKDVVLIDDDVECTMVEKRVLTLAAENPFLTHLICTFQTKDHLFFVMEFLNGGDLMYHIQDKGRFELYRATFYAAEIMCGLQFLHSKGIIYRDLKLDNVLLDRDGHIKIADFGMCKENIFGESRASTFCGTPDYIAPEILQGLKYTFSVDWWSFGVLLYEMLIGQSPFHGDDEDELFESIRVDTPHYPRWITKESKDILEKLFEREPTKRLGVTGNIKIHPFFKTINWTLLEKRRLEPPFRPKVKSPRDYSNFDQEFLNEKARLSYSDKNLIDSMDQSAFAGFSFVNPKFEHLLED
Experiment: PKC-delta inhibition assay (HTRF KinEASE kit), PKC-theta/PKC-delta selectivity
Format: biochemical
Details: ratio, PKC-theta over PKC-delta, HTRF assays
Counter-ions that a name gives are not always drawn.
READOUT: PKC-theta/PKC-delta selectivity

• CC1(C)C(=O)Nc2nccc(-c3nn(C[C@@]4(C)COCCN4)c4ccccc34)c21 (single isomer, unassigned) = 22
• CC1(C)C(=O)Nc2nccc(-c3ccn(C4CCNCC4)n3)c21 [Example 8, Dihydrochloride] = 5
• C[C@@]1(O)C(=O)Nc2nccc(-c3nn(C4(CC#N)CCC4)c4c(F)cccc34)c21 (single isomer, unassigned) = 18
• CC1(C)C(=O)Nc2nccc(-c3nn(C4CCNCC4)c4ccccc34)c21 = 15
• CO[C@]1(C)C(=O)Nc2nccc(-c3nn(CC4(F)CCNCC4)c4ccccc34)c21 (single isomer, unassigned) = 19

Hey, can you go through the list below and give me PKC-theta/PKC-delta selectivity for every item?
1. CC1(C)C(=O)Nc2nccc(-c3nn(C4(CC#N)COC4)c4ccccc34)c21
2. CO[C@]1(C)C(=O)Nc2nccc(-c3nn(C4(CC#N)CCC4)c4ccccc34)c21 (single isomer, unassigned)

1: 15; 2: 20

====

Tested on: IL-2 secretion by human effector memory T cells (TEM)
Assay: Effector memory T cells IL-2 release assay
Type: cell-based
Settings: T-cell; human CD4+ TEM cells, CD3/CD28 bead stimulation, 24 h; binned A to G; read-out: PKC-theta IL2 pIC50 (binned) (converted)
READOUT: IC50

* CC1(C)C(=O)Nc2nccc(-c3nn(C[C@H]4COCCN4)c4ccccc34)c21 [Example 86] | > 1000 nM
* COCc1cc(-c2ccnc3[nH]c(=O)[nH]c23)cn1C1CCNCC1 [Example 4] | > 1000 nM
* CC1(C)C(=O)Nc2nccc(-c3nn(C4CCNCC4)c4c(F)cccc34)c21 [Example 32] | 100 to 316 nM

--- query ---
// query IC50 value for entry C[C@@]1(O)C(=O)Nc2nccc(-c3nn(CC4CCNCC4)c4ccccc34)c21 (single isomer, unassigned) [Example 29] 31.6 to 100 nM

====

Tested on: IL-2 secretion by human effector memory T cells (TEM)
Assay: Effector memory T cells IL-2 release assay
Type: cell-based
Details: T-cell; human CD4+ TEM cells, CD3/CD28 bead stimulation, 24 h; binned A to G; read-out: PKC-theta IL2 pIC50 (binned) (converted)
Kindly supply the reported IC50 values for the records listed here.

Worked examples, 2 compounds total:
- CN[C@@]1(C)C(=O)Nc2nccc(-c3nn(C4(CC#N)CCC4)c4ccccc34)c21 (single isomer, unassigned) [Example 94]: 100 to 316 nM
- C[C@@]1(O)C(=O)Nc2nccc(-c3nn([C@@H]4CCNC[C@@H]4F)c4ccccc34)c21 (single isomer, unassigned) [Example 50]: 10 to 31.6 nM

Proceeding to the next compound to report its IC50.
Report IC50 for CO[C@]1(C)C(=O)Nc2nccc(-c3nn([C@H]4CCNC[C@H]4F)c4ccccc34)c21 (single isomer, unassigned) [Example 91] please. 100 to 316 nM

====

Tested on: IL-2 secretion by human effector memory T cells (TEM)
Experiment: Effector memory T cells IL-2 release assay
Type: cell-based
Details: T-cell; human CD4+ TEM cells, CD3/CD28 bead stimulation, 24 h; binned A to G; read-out: PKC-theta IL2 pIC50 (binned) (converted)
Hi there, I'd appreciate the recorded IC50 for every entry that follows.

• CC1(C)C(=O)Nc2nccc(-c3nn([C@@H]4CCCNC4)c4ccccc34)c21 = 31.6 to 100 nM
• CC[C@]1(C)C(=O)Nc2nccc(-c3nn([C@@H]4CCNC[C@@H]4F)c4ccc(F)cc34)c21 (single isomer, unassigned) = > 1000 nM
• CC1(C)C(=O)Nc2nccc(-c3nn(C[C@@]4(C)COCCN4)c4cc(F)ccc34)c21 = 31.6 to 100 nM
• CC1(C)C(=O)Nc2nccc(-c3nn([C@H]4CCNC4)c4c(F)cccc34)c21 = 100 to 316 nM
• CC[C@@]1(O)C(=O)Nc2nccc(-c3nn([C@@H]4CCNC[C@@H]4F)c4ccccc34)c21 (single isomer, unassigned) = 31.6 to 100 nM

Could I get IC50 for every one of these entries?
1. C[C@@]1(O)C(=O)Nc2nccc(-c3nn(C4(CC#N)CCC4)c4c(F)cccc34)c21 (single isomer, unassigned)
2. CC1(O)C(=O)Nc2nccc(-c3nn(C4(CC#N)CCC4)c4ccccc34)c21 (stereo not shown)

["10 to 31.6 nM", "10 to 31.6 nM"]
